# method-notes: in vitro
# experimental-parameters: male, human, 25% human male serum
Where a SMILES comes first, the peptide text is derived from it.
measured-metric: remaining at 24 h, 5 µM

compound="N=C(N)NCCC[C@@H]1NC(=O)[C@H](CCCNC(=N)N)NC(=O)[C@H](Cc2c[nH]c3ccccc23)NC(=O)[C@H](CCC(N)=O)NC(=O)[C@H](Cc2c[nH]c3ccccc23)NC(=O)[C@H](CCCNC(=N)N)NC1=O [Lfc5, -RRWQWR-] (cyclo(RRWQWR))" observed_result=~50%

Proceeding to the next compound to report its remaining at 24 h, 5 µM.
Consider the compound shown here: N=C(N)NCCC[C@@H]1NC(=O)[C@H](CCCNC(=N)N)NC(=O)[C@H](Cc2ccccc2)NC(=O)[C@H](CCCNC(=N)N)NC(=O)[C@H](Cc2c[nH]c3ccccc23)NC(=O)[C@H](Cc2c[nH]c3ccccc23)NC1=O [Com5, -RRWWRF-] (cyclo(RRWWRF)) What is its recorded remaining at 24 h, 5 µM? ~50%
